# credit: patent US20030186281A1

Reported β-Galactosidase Activity, Cultured Without ATC values for a set of molecules
Test system: tet operator sequence
ASSAY TEXT: β-galactosidase activity of a tetracycline-regulated promoter in transformed E. coli with revTetR, in the presence and absence of anhydrotetracycline (atc)
Type: cell-based, Escherichia coli
EXPERIMENTAL SETUP: RevTetR isolate cultured in the absence of anhydrotetracycline (ATC)

{"columns": ["MOLECULE", "RESULT VALUE"],
 "data": [
  ["TetRrevAtc4-67: revTetR(BD) K48K D53Y A56G E58G (protein, Modified tetracycline repressor, revTetR(BD) K48K D53Y A56G E58G) MSRLDKSKVINSALELLNEVGIEGLTTRKLAQKLGVEQPTLYWHVKNKRALLYALGVGILARHHDYSLPAAGESWQSFLRNNAMSFRRALLRYRDGAKVHLGTRPDEKQYDTVETQLRFMTENGFSLRDGLYAISAVSHFTLGAVLEQQEHTAALTDRPAAPDENLPPLLREALQIMDSDDGEQAFLHGLESLIRGFEVQLTALLQIV", 61.815]
]}

For the next question, use this molecule.
stdin: # β-Galactosidase Activity, Cultured Without ATC lookup, item TetRrev28/31: revTetR(BD) A13A V20G G21R I22N G24G (protein, Modified tetracycline repressor, revTetR(BD) A13A V20G G21R I22N G24G) MSRLDKSKVINSALELLNEGRNEGLTTRKLAQKLGVEQPTLYWHVKNKRALLDALAVEILARHHDYSLPAAGESWQSFLRNNAMSFRRALLRYRDGAKVHLGTRPDEKQYDTVETQLRFMTENGFSLRDGLYAISAVSHFTLGAVLEQQEHTAALTDRPAAPDENLPPLLREALQIMDSDDGEQAFLHGLESLIRGFEVQLTALLQIV
stdout: 99.8749
